Molecular target: recombinant Axl tyrosine kinase (Homo sapiens)
Construct: encompassing amino acids 473 to 894 of Axl; GST (N); made in house; host or cells: SF126 insect cells
Test: In vitro Axl kinase assay (AlphaScreen), Test (a)
Assay type: biochemical
Details: test compound at 1 μM; first value quoted
Method: Test compounds were prepared as 10 mM stock solutions in dimethylsulphoxide (DMSO) and diluted in DMSO as required. Aliquots (120 nl) of compound dilutions were filled into the wells of a Greiner 384-well low volume (LV) white polystyrene plate (Greiner Bio-one) using acoustic dispensing (Labcyte Echo 550). […]
measurement.type: % Axl tyrosine kinase inhibition at 1 μM concentration (%)

>  <compound>
CN(C)c1cccc(-c2cnc(N)c(-c3nc4ccccc4o3)c2)c1

>  <endpoint.value>
90.0

$$$$

[P] Nc1ncc(-c2ccc(C(=O)N3CCC(N4CCCC4)CC3)cc2)cc1-c1nc2ncccc2o1 [Example 45B.5]
[Q] CNS(=O)(=O)c1cccc(-c2cnc(N)c(-c3nc4ccncc4o3)c2)c1 [Example 11A.8]
*Q* Param pair: P , Q . Output: the one whose % Axl tyrosine kinase inhibition at 1 μM concentration is numerically greater. Provide the label of your selected option as the answer.
*A* P
(P: 99.9%, Q: 39.6%)

----------
Target: recombinant Axl tyrosine kinase (Homo sapiens, UniProt P30530)
Construct: encompassing amino acids 473 to 894 of Axl; GST (N); made in house; host or cells: SF126 insect cells
Sequence (P30530 473-894): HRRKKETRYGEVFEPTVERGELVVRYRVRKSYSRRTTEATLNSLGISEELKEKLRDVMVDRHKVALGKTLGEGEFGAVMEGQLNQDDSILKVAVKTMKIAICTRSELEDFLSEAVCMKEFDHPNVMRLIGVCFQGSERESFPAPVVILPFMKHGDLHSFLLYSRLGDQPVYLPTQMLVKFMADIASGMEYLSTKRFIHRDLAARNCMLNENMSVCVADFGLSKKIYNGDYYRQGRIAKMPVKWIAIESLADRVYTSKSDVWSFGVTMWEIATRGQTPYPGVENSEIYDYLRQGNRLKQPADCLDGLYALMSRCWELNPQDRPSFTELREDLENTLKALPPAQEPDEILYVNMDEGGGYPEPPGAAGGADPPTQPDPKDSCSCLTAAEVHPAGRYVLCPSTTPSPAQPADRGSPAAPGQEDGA
Experiment: In vitro Axl kinase assay (AlphaScreen), Test (a)
Assay type: biochemical
Conditions: test compound at 1 μM; first value quoted
measurement.type: % Axl tyrosine kinase inhibition at 1 μM concentration (%)

>  <molecule>
CC(C)(C)OC(=O)N1CCC(C(=O)Nc2cccc(-c3cnc(N)c(-c4nc5ncccc5o4)c3)c2)CC1 [Example 10A.3]

>  <endpoint.value>
87.2

$$$$
>  <molecule>
CO[C@H](C)C(=O)N1CCC(n2cc(-c3cnc(N)c(-c4nc5cccnc5o4)c3)cn2)CC1

>  <endpoint.value>
99.1

$$$$
>  <molecule>
COc1cccc2oc(-c3cc(-c4cnn(C5CCNCC5)c4)cnc3N)nc12 [Example 38A.1]

>  <endpoint.value>
97.8

$$$$
>  <molecule>
Nc1ncc(-c2ccc(C(=O)N3CCC(N4CCCCC4)CC3)cc2)cc1-c1nc2cccnc2o1 [Example 45A.52]

>  <endpoint.value>
94.3

$$$$
>  <molecule>
Nc1ncc(-c2cnn(CC3CCNCC3)c2)cc1-c1nc2ccccc2o1

>  <endpoint.value>
99.8

$$$$
>  <molecule>
CN(C)C(=O)c1nn(C2CCNCC2)cc1-c1cnc(N)c(-c2nc3ccccc3o2)c1

>  <endpoint.value>
98.8

$$$$
>  <molecule>
CN1CC(Cn2cc(-c3cnc(N)c(-c4nc5ccccc5o4)c3)cn2)C1

>  <endpoint.value>
74.7

$$$$
>  <molecule>
CN1CCC(n2cc(-c3cnc(N)c(-c4nc5c(C#N)cccc5o4)c3)cn2)CC1

>  <endpoint.value>
99.8

$$$$
>  <molecule>
Nc1ncc(-c2cnn(C3CCN(S(=O)(=O)C4CC4)CC3)c2)cc1-c1nc2ncccc2o1

>  <endpoint.value>
98.8

$$$$
>  <molecule>
Nc1ncc(-c2cn(C3CCNCC3)nc2CO)cc1-c1nc2c(F)cccc2o1

>  <endpoint.value>
100.0

$$$$
>  <molecule>
CCN(CC)CCOc1ccc(-c2cnc(N)c(-c3nc4ncccc4o3)c2)cc1OC [Example 43C.4]

>  <endpoint.value>
99.8

$$$$
>  <molecule>
COc1cc(-c2cnc(N)c(-c3nc4ncccc4o3)c2)ccc1OC1CCCN(C)C1 (stereo not drawn) [Example 43C.9]

>  <endpoint.value>
99.9

$$$$
>  <molecule>
COCc1cccc(-c2cnc(N)c(-c3nc4ncccc4o3)c2)c1 [Example 10A.16]

>  <endpoint.value>
99.9

$$$$
>  <molecule>
CN(C)CCCN(C)C(=O)c1ccc(-c2cnc(N)c(-c3nc4cccnc4o3)c2)cc1 [Example 45A.54]

>  <endpoint.value>
97.8

$$$$
>  <molecule>
CN(C)C1CCN(C(=O)c2ccc(-c3cnc(N)c(-c4nc5cccnc5o4)c3)cc2)CC1 [Example 45A.1]

>  <endpoint.value>
92.9

$$$$
>  <molecule>
CCN1CCCC1CNC(=O)c1ccc(-c2cnc(N)c(-c3nc4cccnc4o3)c2)cc1 (stereo not drawn) [Example 45A.72]

>  <endpoint.value>
99.6

$$$$
>  <molecule>
Nc1ncc(-c2cccc(CN3CCCC3)c2)cc1-c1nc2cccnc2o1

>  <endpoint.value>
96.5

$$$$
>  <molecule>
CN(C)CCCn1cc(-c2cnc(N)c(-c3nc4ccccc4o3)c2)cn1

>  <endpoint.value>
99.2

$$$$
>  <molecule>
COc1cc(-c2cnc(N)c(-c3nc4ncccc4o3)c2)ccc1OCC1CCCNC1 (stereo not drawn) [Example 43C.33]

>  <endpoint.value>
99.8

$$$$
>  <molecule>
CN(C)C(=O)CN1CCN(C(=O)c2ccc(-c3cnc(N)c(-c4nc5ncccc5o4)c3)cc2)CC1 [Example 45B.6]

>  <endpoint.value>
95.9

$$$$
>  <molecule>
CN1CCC[C@H]1COc1ccc(-c2cnc(N)c(-c3nc4ncccc4o3)c2)cc1 [Example 43B.5]

>  <endpoint.value>
99.4

$$$$
>  <molecule>
CN1CCC(N(C)C(=O)c2ccc(-c3cnc(N)c(-c4nc5cccnc5o4)c3)cc2)C1 (stereo not drawn) [Example 45A.3]

>  <endpoint.value>
98.0

$$$$
>  <molecule>
Nc1ncc(-c2cccc(N3CCCCC3)c2)cc1-c1nc2ccncc2o1 [Example 11A.6]

>  <endpoint.value>
90.0

$$$$
>  <molecule>
N#CCc1cccc(-c2cnc(N)c(-c3nc4ccccc4o3)c2)c1

>  <endpoint.value>
98.0

$$$$
>  <molecule>
CC(O)C(=O)N1CCC(n2cc(-c3cnc(N)c(-c4nc5ccccc5o4)c3)cn2)CC1 (stereo not drawn)

>  <endpoint.value>
99.7

$$$$
>  <molecule>
Cc1nn(C2CCNCC2)cc1-c1cnc(N)c(-c2nc3c(C#N)cccc3o2)c1

>  <endpoint.value>
99.8

$$$$
>  <molecule>
Nc1ncc(-c2ccc(C(=O)N3CCCCC3CN3CCCC3)cc2)cc1-c1nc2cccnc2o1 (stereo not drawn) [Example 45A.23]

>  <endpoint.value>
99.8

$$$$
>  <molecule>
Nc1ncc(-c2ccc(C(=O)N3CCC[C@H](N)C3)cc2)cc1-c1nc2cccnc2o1 [Example 45A.88]

>  <endpoint.value>
99.8

$$$$
>  <molecule>
NCc1ccc(-c2cnc(N)c(-c3nc4cnccc4o3)c2)cc1

>  <endpoint.value>
99.1

$$$$
>  <molecule>
CN1CCCN(C(=O)c2ccc(-c3cnc(N)c(-c4nc5cccnc5o4)c3)cc2)CC1 [Example 45A.65]

>  <endpoint.value>
98.3

$$$$
>  <molecule>
CN1CCC(N(C)C(=O)c2ccc(-c3cnc(N)c(-c4nc5cccnc5o4)c3)cc2)CC1 [Example 45A.31]

>  <endpoint.value>
95.9

$$$$
>  <molecule>
Nc1ncc(-c2ccc(C(=O)N3CCC(O)CC3)cc2)cc1-c1nc2cccnc2o1

>  <endpoint.value>
95.6

$$$$
>  <molecule>
Nc1ncc(-c2cnn(CCCN3CCC(O)C3)c2)cc1-c1nc2ccccc2o1 (stereo not drawn)

>  <endpoint.value>
100.0

$$$$

Value source: patent US8017611B2
